system: peripheral blood lymphocytes; assay: Staining of peripheral blood lymphocytes, fluorometer (Example 11); assay type: cell-based, goat; conditions: on the scale of seconds
measurement label: distribution of dye into nucleus of lymphocytes

# structure smiles, assay target, endpoint value
rows = [
    ("CCCCCC[n+]1c(-c2ccccc2)c2cc(N)ccc2c2ccc(N)cc21", "peripheral blood lymphocytes", "virtually instantaneous"),
    ("CCCCCCCC[n+]1c(-c2ccccc2)c2cc(N)ccc2c2ccc(N)cc21", "peripheral blood lymphocytes", "virtually instantaneous"),
    ("CCCC[n+]1c(-c2ccccc2)c2cc(N)ccc2c2ccc(N)cc21", "peripheral blood lymphocytes", "virtually instantaneous"),
]
